The reported measurements were obtained from patent US12202805B2.

Protocol details: E-2.3 inhalative, oral and intravenous single doses in healthy male subjects: plasma concentrations and lung deposition
Type: in vivo, human
Assay context: male, human, plasma, inhaled, 1000 μg, healthy male subjects, single 1000 μg inhale, N = 16; 4 h after dose; read-out: Geometric mean of plasma concentrations
Procedure: E-2.3 Inhalative, Oral and Intravenous Administration of Single Doses of sGC an Activator in Healthy Male Subjects—Lung Deposition Healthy white male subjects, aged 18 to 45 years with a body mass index (BMI) above/equal 18.5 and below/equal 29.9 kg/m^2 were treated in a clinical phase I study with a single inhaled dose of 1000 μg (nominal dose), a single inhaled dose of 1000 μg (nominal dose)+charcoal block, a single oral dose of 1000 μg and a single infusion over 2 h of 100 μg of example 4. […]
Measured parameter: concentration at 4 h (ng/mL)
// units = ng/mL; emit number, no label

Supply reported concentration at 4 h belonging to this compound: O=C(O)c1ccc(CCN(CCc2ccccc2OCc2ccc(-c3ccc(C(F)(F)F)cc3)cc2Cl)[C@H]2CCCc3nc(C(=O)O)ccc32)cc1 [example 4]
0.927

---

Protocol details: E-2.3 inhalative, oral and intravenous single doses in healthy male subjects: plasma concentrations and lung deposition
Type: in vivo, human
Assay context: male, human, plasma, inhaled, 1000 μg, healthy male subjects, single 1000 μg inhale + Charcoal Block, N = 16; 0.75 h after dose; read-out: Geometric mean of plasma concentrations
Measured parameter: concentration at 0.75 h (ng/mL)
Number in ng/mL, nothing else.

Name the recorded concentration at 0.75 h of the compound listed here: O=C(O)c1ccc(CCN(CCc2ccccc2OCc2ccc(-c3ccc(C(F)(F)F)cc3)cc2Cl)[C@H]2CCCc3nc(C(=O)O)ccc32)cc1 [example 4]
0.491
